The following compounds are listed with their measured pIC50 values.
STUDY_SYSTEM: Phospho-BTK (Y223) in NIH/3T3 BTK WT cells (Homo sapiens)
Sequence (Q06187 whole entry): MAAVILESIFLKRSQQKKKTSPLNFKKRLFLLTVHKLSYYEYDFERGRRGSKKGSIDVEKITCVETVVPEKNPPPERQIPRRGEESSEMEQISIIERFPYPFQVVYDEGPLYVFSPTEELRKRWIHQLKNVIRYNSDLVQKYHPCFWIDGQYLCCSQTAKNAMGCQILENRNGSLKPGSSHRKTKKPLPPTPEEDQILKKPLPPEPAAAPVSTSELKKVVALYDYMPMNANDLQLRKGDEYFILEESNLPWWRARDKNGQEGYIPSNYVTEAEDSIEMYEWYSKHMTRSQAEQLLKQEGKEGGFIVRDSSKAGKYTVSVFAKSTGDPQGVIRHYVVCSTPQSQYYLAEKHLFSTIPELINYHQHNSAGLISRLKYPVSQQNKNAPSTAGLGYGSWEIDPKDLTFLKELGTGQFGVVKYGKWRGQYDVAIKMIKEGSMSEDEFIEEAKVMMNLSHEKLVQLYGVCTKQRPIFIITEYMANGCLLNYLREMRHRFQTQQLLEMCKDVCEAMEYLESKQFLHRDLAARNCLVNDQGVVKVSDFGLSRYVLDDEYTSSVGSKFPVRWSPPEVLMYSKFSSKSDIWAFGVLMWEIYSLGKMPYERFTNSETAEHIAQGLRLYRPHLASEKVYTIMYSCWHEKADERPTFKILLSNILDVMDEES
EXPERIMENT_SUMMARY: Phospho-BTK (Y223) assay, NIH/3T3 BTK WT cells
CONDITION_DETAILS: phospho-BTK Y223, NIH/3T3 BTK WT cells; read-out: NIH/3T3 BTK-WT pBTK IC50
By convention, pIC50 is the negative base-10 log of a molar concentration.

For orientation, consider the following solved cases.
C=CC(=O)N1CCC[C@@H](c2nc(-c3ccc(Oc4ccccc4)cc3)c3c(N)ncnn23)C1: 8.31
C=CC(=O)N1CCC[C@@H](c2nc(-c3ccc(Oc4ccccc4)cc3)c3c(N)nccn23)C1: 8.13
C=CC(=O)N1CCC[C@@H](c2nn(-c3ccc(Oc4ccccc4)cc3)c3c(N)ncnc23)C1: 8.26
C=CC(=O)N1CCC[C@H](c2nn(-c3ccc(Oc4ccccc4)cc3)c3c(N)ncnc23)C1: 7.73

Shift focus to the following entry.
Recorded pIC50 for C=CC(=O)N1CCC[C@@H](c2cn(-c3ccc(Oc4ccccc4)cc3)c3c(N)ncnc23)C1 , please?
8.18

====

EXPERIMENT_SUMMARY: in vivo
CONDITION_DETAILS: male, Sprague-Dawley, rat, iv, 0.5 mg/kg
PROPERTY: AUC(0-t) (ng·h/mL)
Reply numerically in ng·h/mL, unit not repeated.

Recorded AUC(0-t) for C=CC(=O)N1CCC[C@@H](c2nc(-c3ccc(Oc4ccccc4)cc3)c3c(N)ncnn23)C1 , please?
255

====

EXPERIMENT_SUMMARY: Pharmacokinetics and brain distribution study after a single oral administration
CONDITION_DETAILS: male, Sprague Dawley, rat, CSF, po, 10 mg/kg
PROPERTY: Tmax (min)
Reply numerically in min, unit not repeated.

Recorded Tmax for C=CC(=O)N1CCC[C@@H](c2nc(-c3ccc(Oc4ccccc4)cc3)c3c(N)nccn23)C1 , please?
30

====

EXPERIMENT_SUMMARY: Pharmacokinetics and brain distribution study after a single oral administration
CONDITION_DETAILS: male, Sprague Dawley, rat, brain, po, 10 mg/kg
PROPERTY: Tmax (min)
Reply numerically in min, unit not repeated.

Recorded Tmax for C=CC(=O)N1CCC[C@@H](c2nc(-c3ccc(Oc4ccccc4)cc3)c3c(N)nccn23)C1 , please?
30

====

EXPERIMENT_SUMMARY: Pharmacokinetics and brain distribution study after a single oral administration
CONDITION_DETAILS: male, Sprague Dawley, rat, brain, po, 10 mg/kg
PROPERTY: AUC(0-t) (ng·h/mL)
Reply numerically in ng·h/mL, unit not repeated.

Recorded AUC(0-t) for C=CC(=O)N1CCC[C@@H](c2nc(-c3ccc(Oc4ccccc4)cc3)c3c(N)nccn23)C1 , please?
16.4

====

EXPERIMENT_SUMMARY: Pharmacokinetics and brain distribution study after a single oral administration
CONDITION_DETAILS: male, Sprague Dawley, rat, plasma, po, 10 mg/kg
PROPERTY: AUC(0-t) (ng·h/mL)
Reply numerically in ng·h/mL, unit not repeated.

C=CC(=O)N1CCC[C@@H](n2nc(-c3ccc(Oc4ccccc4)cc3)c3c(N)ncnc32)C1 [Ibrutinib, reference compound]: 626

Shift focus to the following entry.
Recorded AUC(0-t) for C=CC(=O)N1CCC[C@@H](c2nc(-c3ccc(Oc4ccccc4)cc3)c3c(N)nccn23)C1 , please?
275
